Target: Nav1.5 sodium channel, peak current (INaP) (Homo sapiens, UniProt Q14524, form not given)
Test: in vitro
Conditions: Peak Na+ (INaP) IC50
Method: This provided data to investigate the physiology and action of target compounds on individual ion channels. The assay used standardized protocols for culturing and conducting conventional whole cell recording that have been previously developed for both current and voltage-clamp to characterize action potentials using transfected cells. Briefly, the Nav1.5 sodium channel was transfected into HEK293 cells. […] Briefly, cells were plated on 0.1% gelatin-coated 35-mm plastic Petri dishes. […]
Measurement type: IC50 (µM)

1) Cc1cc(C)cc(OCC(N)c2ccccc2)c1.Cl (racemic) [Compound 70, hydrochloride] : 20.1
2) COCCNC(COc1cc(C(F)(F)F)cc(C(F)(F)F)c1)c1ccccc1.Cl (centres unmarked) : 45.1
3) COCCNC(COc1ccccc1C(F)(F)F)c1ccccc1.Cl (centres unmarked) : 44.3
4) Cc1ccccc1OCC(C)N (centres unmarked) : 162
5) NC(COc1ccccc1C(F)(F)F)c1ccccc1 (centres unmarked) : 41.1

----------
Molecular target: Nav1.5 sodium channel transfected into HEK293 cells (Homo sapiens, UniProt Q14524)
Assay: Patch clamp electrophysiology, peak (INaP) and late (INaL) sodium current in transfected cells
Details: ratio peak IC50/late IC50
Measurement type: DNap/NaL

1. Cl.NC(COc1cc(C(F)(F)F)cc(C(F)(F)F)c1)c1ccccc1 (centres unmarked) : 19.4
2. Cc1cc(C)cc(OCC(N)c2ccccc2)c1.Cl (racemic) : 103
3. CNC(C)COc1c(C)cccc1C (centres unmarked) : 3.4
4. COCCNC(COc1cc(C)cc(C)c1)c1ccccc1.Cl (centres unmarked) : 45.3
5. Cc1cc(C)cc(OCC(N)C2CC2)c1.Cl (centres unmarked) : 7.7

----------
Assay: Metabolic stability in human liver microsomes
Format: in vitro ADME
Conditions: human, liver microsomes, pH 7.4, 50 μM, NADPH-generating system, 37° C.; read-out: Liver Microsomes t1/2 Human
List of half-life at 50 μM values.
Measurement type: half-life at 50 μM (h)

1. Cc1ccccc1OCC(N)c1ccccc1 (centres unmarked) [drawing 303] : 2.35
2. Cc1cc(C)cc(OCC(N)c2ccccc2)c1 (centres unmarked) [drawing 301] : 1.73

----------
Target: UniProtKB P31513
Sequence (P31513 whole entry): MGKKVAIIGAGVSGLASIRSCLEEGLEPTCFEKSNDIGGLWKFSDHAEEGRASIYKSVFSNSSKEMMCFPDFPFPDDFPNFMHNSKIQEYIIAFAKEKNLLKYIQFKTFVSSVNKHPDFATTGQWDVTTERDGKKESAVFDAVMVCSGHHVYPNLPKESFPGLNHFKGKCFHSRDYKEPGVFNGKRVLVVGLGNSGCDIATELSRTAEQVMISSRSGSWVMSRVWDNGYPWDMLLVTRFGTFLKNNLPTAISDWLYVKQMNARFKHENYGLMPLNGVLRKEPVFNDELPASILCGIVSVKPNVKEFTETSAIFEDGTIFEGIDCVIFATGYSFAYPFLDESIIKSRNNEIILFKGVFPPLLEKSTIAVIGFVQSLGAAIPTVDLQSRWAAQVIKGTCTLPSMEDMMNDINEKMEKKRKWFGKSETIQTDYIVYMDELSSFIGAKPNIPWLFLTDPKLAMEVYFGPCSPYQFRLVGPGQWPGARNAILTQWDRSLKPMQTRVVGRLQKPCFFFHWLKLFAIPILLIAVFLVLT
Settings: 15 μg enzyme/incubation; 30 mins, 37° C.; nmol metabolism/incubation
List of Human FMO3 (nmol/incub) values.
Measurement type: Human FMO3 (nmol/incub)

1) Cl.[2H]C(N)(COc1ccccc1C)c1ccccc1 (stereo not shown) [Compound 104c] : 1.3
2) Cl.[2H]C(N)(COc1cc(C(F)(F)F)cc(C(F)(F)F)c1)c1ccccc1 (stereo not shown) [Compound 104a] : 0.6
3) Cl.[2H]C(N)(COc1ccccc1C(F)(F)F)c1ccccc1 (stereo not shown) [Compound 104d] : 0.7
4) Cl.[2H]C(N)(COc1cc(C)cc(C)c1)c1ccccc1 (stereo not shown) [Compound 104b] : 0.05

----------
Target: Nav1.5 sodium channel transfected into HEK293 cells (Homo sapiens)
Assay: in vitro
pIC50: −log10 of the molar value.
List of pIC50 values.
Measurement type: pIC50

1. NC(COc1ccccc1C(F)(F)F)c1ccccc1 (centres unmarked) [Compound 27] : 5.98
2. Cc1cc(C)cc(OCC(N)C2CC2)c1.Cl (centres unmarked) [Compound 91] : 5.00
3. COCCNC(COc1ccccc1C(F)(F)F)c1ccccc1.Cl (centres unmarked) [Compound 105] : 5.94
4. Cc1cc(C)cc(OCC(C)N)c1 (centres unmarked) [Compound 55] : 4.77
5. Cc1cccc(C)c1OCC(N)C(C)(C)C (centres unmarked) [Compound 12] : 4.96
6. Cc1cccc(OCC(N)c2ccccc2)c1C (centres unmarked) [Compound 35] : 5.99
7. COCCNC(COc1cccc(C)c1C)c1ccccc1 (racemic) [Compound 36] : 6.13
8. Cc1cccc(C)c1OCC(N)C1CC1 (centres unmarked) [Compound 10] : 5.14
9. CNC(C)COc1c(C)cccc1C (centres unmarked) [Compound 11] : 4.44
10. Cc1ccncc1OCC(N)c1ccccc1.Cl (centres unmarked) [Compound 88] : 5.98
11. Cc1ccccc1OCC(C)N (centres unmarked) [Compound 9, 1-(2-Methylphenoxy)propan-2-amine] : 4.28
